Tested on: CCRF-CEM leukemia
Assay: NCI-60 one-dose screen, 48 h (100 = growth as untreated, 0 = no growth, -100 = all killed)
Conditions: 10 µM unless noted
Compounds without any hit were thinned out: in the full panel of roughly 83,000, 20% have a hit. Active and inactive are the calls of the source. The calls were made as follows: active = growth percent below 10; inactive = the rest.

molecule	target or test system	growth
Nc1c(C(=O)Nc2ccccc2)sc2nc3c(cc12)CCC3	CCRF-CEM leukemia	89.7% (inactive)
COc1ccc(-c2nc3sccn3c2-c2ccnc(NCCNS(=O)(=O)c3ccc(C(F)(F)F)cc3)n2)cc1	CCRF-CEM leukemia	9.58% (active)
CN(C)c1ncc(-c2ccc(C(F)(F)F)cc2)c(NC2CCCCCC2)n1	CCRF-CEM leukemia	45.5% (inactive)
C=C1C(=O)O[C@H]2[C@H]1CC/C(Cn1cc(-c3ccccc3C(F)(F)F)nn1)=C\CC[C@@]1(C)O[C@@H]21	CCRF-CEM leukemia	-28.5% (active)
CC(C)(C)c1cc(-c2nc3ccc(N4CCN(CCO)CC4)cc3[nH]2)cc(C(C)(C)C)c1O	CCRF-CEM leukemia	29.5% (inactive)
CCOC(=O)/C=C\C(=O)NC(N)=O	CCRF-CEM leukemia	93.9% (inactive)
COc1cccc(/C=C2\SC(N3CCN(c4ccccn4)CC3)=NC2=O)c1	CCRF-CEM leukemia	63.4% (inactive)
CCCCCCCCCCCCOB(OCCCCCCCCCCCC)OCCCCCCCCCCCC	CCRF-CEM leukemia	95.3% (inactive)
COC1=CC(c2ccc[nH]2)=N/C1=C\c1[nH]c(C)c(C(=O)CCC(=O)Oc2ccc3c(c2)CCC2C3CC[C@]3(C)[C@@H](O)CC[C@@H]23)c1C (some centres undefined)	CCRF-CEM leukemia	0.176% (active)
